Exercise: for every item that follows, state its recorded IC50.
Tgt: Recombinant human PKC-theta (His-tagged 362-706) (Homo sapiens (Human))
Sequence (Q04759 362-706): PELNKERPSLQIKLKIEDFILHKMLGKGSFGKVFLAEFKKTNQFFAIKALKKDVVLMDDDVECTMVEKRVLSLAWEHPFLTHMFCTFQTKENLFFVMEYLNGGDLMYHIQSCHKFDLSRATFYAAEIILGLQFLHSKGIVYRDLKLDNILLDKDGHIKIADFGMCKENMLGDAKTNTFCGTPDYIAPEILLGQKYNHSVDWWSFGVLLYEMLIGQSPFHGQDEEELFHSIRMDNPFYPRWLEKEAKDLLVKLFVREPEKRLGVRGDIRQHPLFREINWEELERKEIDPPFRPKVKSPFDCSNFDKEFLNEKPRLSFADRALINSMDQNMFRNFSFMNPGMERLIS
Measurement description: PKC-theta inhibition assay (HTRF KinEASE kit)
Format: biochemical
Condition notes: ATP 6.5 μM, binned A to H, read-out: PKC-theta HTRF pIC50 (binned) (converted)

# Molecule, Measure, Result
rows = [
    ("CC[C@]1(C)C(=O)Nc2nccc(-c3nn([C@H]4CCNC[C@H]4F)c4ccccc34)c21 (single isomer, unassigned)", "IC50", "1 to 3.16 nM"),
]

// each molecule listed below needs its IC50
1. COC1(C)C(=O)Nc2nccc(-c3nn(C4(CC#N)CCC4)c4ccccc34)c21 (centres unmarked)
2. C[C@@]1(O)C(=O)Nc2nccc(-c3nn(C4(CC#N)CCC4)c4cc(F)ccc34)c21 (single isomer, unassigned)
3. CC1(O)C(=O)Nc2nccc(-c3nn([C@@H]4CCNC[C@@H]4F)c4ccccc34)c21 (some centres unmarked)

Found:
1. 1 to 3.16 nM
2. ≤ 1 nM
3. 1 to 3.16 nM
